# testContext: in acetonitrile, 323.15 K
measurementType: solubility (mole fraction)

Fill in the blank: the reported solubility (mole fraction) of `C=C[C@]1(C)C[C@@H](OC(=O)CSCCN(CC)CC)[C@]2(C)[C@H](C)CC[C@]3(CCC(=O)[C@H]32)[C@@H](C)[C@@H]1O.O=C(O)/C=C/C(=O)O` is ____.
0.000993

----------
# testContext: in acetone, 303.15 K
measurementType: solubility (mole fraction)
Lab note: write the figure by itself, no unit.

Fill in the blank: the reported solubility (mole fraction) of `C=C[C@]1(C)C[C@@H](OC(=O)CSCCN(CC)CC)[C@]2(C)[C@H](C)CC[C@]3(CCC(=O)[C@H]32)[C@@H](C)[C@@H]1O.O=C(O)/C=C/C(=O)O` is ____.
0.00377

----------
# testContext: in ethyl acetate, 293.15 K
measurementType: solubility (mole fraction)
Lab note: write the figure by itself, no unit.

Fill in the blank: the reported solubility (mole fraction) of `C=C[C@]1(C)C[C@@H](OC(=O)CSCCN(CC)CC)[C@]2(C)[C@H](C)CC[C@]3(CCC(=O)[C@H]32)[C@@H](C)[C@@H]1O.O=C(O)/C=C/C(=O)O` is ____.
0.000719

----------
# testContext: in isobutyl acetate, 283.15 K
measurementType: solubility (mole fraction)
Lab note: write the figure by itself, no unit.

Fill in the blank: the reported solubility (mole fraction) of `C=C[C@]1(C)C[C@@H](OC(=O)CSCCN(CC)CC)[C@]2(C)[C@H](C)CC[C@]3(CCC(=O)[C@H]32)[C@@H](C)[C@@H]1O.O=C(O)/C=C/C(=O)O` is ____.
0.000437

----------
# testContext: in MIBK, 303.15 K
measurementType: solubility (mole fraction)
Lab note: write the figure by itself, no unit.

Fill in the blank: the reported solubility (mole fraction) of `C=C[C@]1(C)C[C@@H](OC(=O)CSCCN(CC)CC)[C@]2(C)[C@H](C)CC[C@]3(CCC(=O)[C@H]32)[C@@H](C)[C@@H]1O.O=C(O)/C=C/C(=O)O` is ____.
0.00134

----------
# testContext: in n-butanol, 323.15 K
measurementType: solubility (mole fraction)
Lab note: write the figure by itself, no unit.

Fill in the blank: the reported solubility (mole fraction) of `C=C[C@]1(C)C[C@@H](OC(=O)CSCCN(CC)CC)[C@]2(C)[C@H](C)CC[C@]3(CCC(=O)[C@H]32)[C@@H](C)[C@@H]1O.O=C(O)/C=C/C(=O)O` is ____.
0.0173

----------
# testContext: in n-butyl acetate, 303.15 K
measurementType: solubility (mole fraction)
Lab note: write the figure by itself, no unit.

Fill in the blank: the reported solubility (mole fraction) of `C=C[C@]1(C)C[C@@H](OC(=O)CSCCN(CC)CC)[C@]2(C)[C@H](C)CC[C@]3(CCC(=O)[C@H]32)[C@@H](C)[C@@H]1O.O=C(O)/C=C/C(=O)O` is ____.
0.001

----------
# testContext: in n-butanol, 313.15 K
measurementType: solubility (mole fraction)
Lab note: write the figure by itself, no unit.

Fill in the blank: the reported solubility (mole fraction) of `C=C[C@]1(C)C[C@@H](OC(=O)CSCCN(CC)CC)[C@]2(C)[C@H](C)CC[C@]3(CCC(=O)[C@H]32)[C@@H](C)[C@@H]1O.O=C(O)/C=C/C(=O)O` is ____.
0.00962

----------
# testContext: in n-butanol, 283.15 K
measurementType: solubility (mole fraction)
Lab note: write the figure by itself, no unit.

Fill in the blank: the reported solubility (mole fraction) of `C=C[C@]1(C)C[C@@H](OC(=O)CSCCN(CC)CC)[C@]2(C)[C@H](C)CC[C@]3(CCC(=O)[C@H]32)[C@@H](C)[C@@H]1O.O=C(O)/C=C/C(=O)O` is ____.
0.00276

----------
# testContext: in isopropyl acetate, 323.15 K
measurementType: solubility (mole fraction)
Lab note: write the figure by itself, no unit.

Fill in the blank: the reported solubility (mole fraction) of `C=C[C@]1(C)C[C@@H](OC(=O)CSCCN(CC)CC)[C@]2(C)[C@H](C)CC[C@]3(CCC(=O)[C@H]32)[C@@H](C)[C@@H]1O.O=C(O)/C=C/C(=O)O` is ____.
0.00163

----------
# testContext: in n-butanol, 303.15 K
measurementType: solubility (mole fraction)
Lab note: write the figure by itself, no unit.

Fill in the blank: the reported solubility (mole fraction) of `C=C[C@]1(C)C[C@@H](OC(=O)CSCCN(CC)CC)[C@]2(C)[C@H](C)CC[C@]3(CCC(=O)[C@H]32)[C@@H](C)[C@@H]1O.O=C(O)/C=C/C(=O)O` is ____.
0.00596

----------
# testContext: in methyl acetate, 323.15 K
measurementType: solubility (mole fraction)
Lab note: write the figure by itself, no unit.

Fill in the blank: the reported solubility (mole fraction) of `C=C[C@]1(C)C[C@@H](OC(=O)CSCCN(CC)CC)[C@]2(C)[C@H](C)CC[C@]3(CCC(=O)[C@H]32)[C@@H](C)[C@@H]1O.O=C(O)/C=C/C(=O)O` is ____.
0.00142

----------
# testContext: in n-butanol, 293.15 K
measurementType: solubility (mole fraction)

Fill in the blank: the reported solubility (mole fraction) of `C=C[C@]1(C)C[C@@H](OC(=O)CSCCN(CC)CC)[C@]2(C)[C@H](C)CC[C@]3(CCC(=O)[C@H]32)[C@@H](C)[C@@H]1O.O=C(O)/C=C/C(=O)O` is ____.
0.00458

----------
# testContext: in acetone, 313.15 K
measurementType: solubility (mole fraction)
Lab note: write the figure by itself, no unit.

Fill in the blank: the reported solubility (mole fraction) of `C=C[C@]1(C)C[C@@H](OC(=O)CSCCN(CC)CC)[C@]2(C)[C@H](C)CC[C@]3(CCC(=O)[C@H]32)[C@@H](C)[C@@H]1O.O=C(O)/C=C/C(=O)O` is ____.
0.00574

----------
# testContext: in isopropanol, 293.15 K
measurementType: solubility (mole fraction)

Fill in the blank: the reported solubility (mole fraction) of `C=C[C@]1(C)C[C@@H](OC(=O)CSCCN(CC)CC)[C@]2(C)[C@H](C)CC[C@]3(CCC(=O)[C@H]32)[C@@H](C)[C@@H]1O.O=C(O)/C=C/C(=O)O` is ____.
0.00124

----------
# testContext: in isobutyl acetate, 313.15 K
measurementType: solubility (mole fraction)
Lab note: write the figure by itself, no unit.

Fill in the blank: the reported solubility (mole fraction) of `C=C[C@]1(C)C[C@@H](OC(=O)CSCCN(CC)CC)[C@]2(C)[C@H](C)CC[C@]3(CCC(=O)[C@H]32)[C@@H](C)[C@@H]1O.O=C(O)/C=C/C(=O)O` is ____.
0.00103

----------
# testContext: in MIBK, 323.15 K
measurementType: solubility (mole fraction)
Lab note: write the figure by itself, no unit.

Fill in the blank: the reported solubility (mole fraction) of `C=C[C@]1(C)C[C@@H](OC(=O)CSCCN(CC)CC)[C@]2(C)[C@H](C)CC[C@]3(CCC(=O)[C@H]32)[C@@H](C)[C@@H]1O.O=C(O)/C=C/C(=O)O` is ____.
0.00254

----------
# testContext: in methyl acetate, 303.15 K
measurementType: solubility (mole fraction)
Lab note: write the figure by itself, no unit.

Fill in the blank: the reported solubility (mole fraction) of `C=C[C@]1(C)C[C@@H](OC(=O)CSCCN(CC)CC)[C@]2(C)[C@H](C)CC[C@]3(CCC(=O)[C@H]32)[C@@H](C)[C@@H]1O.O=C(O)/C=C/C(=O)O` is ____.
0.000624

----------
# testContext: in isopropanol, 303.15 K
measurementType: solubility (mole fraction)
Lab note: write the figure by itself, no unit.

Fill in the blank: the reported solubility (mole fraction) of `C=C[C@]1(C)C[C@@H](OC(=O)CSCCN(CC)CC)[C@]2(C)[C@H](C)CC[C@]3(CCC(=O)[C@H]32)[C@@H](C)[C@@H]1O.O=C(O)/C=C/C(=O)O` is ____.
0.00173

----------
# testContext: in isobutyl acetate, 303.15 K
measurementType: solubility (mole fraction)
Lab note: write the figure by itself, no unit.

Fill in the blank: the reported solubility (mole fraction) of `C=C[C@]1(C)C[C@@H](OC(=O)CSCCN(CC)CC)[C@]2(C)[C@H](C)CC[C@]3(CCC(=O)[C@H]32)[C@@H](C)[C@@H]1O.O=C(O)/C=C/C(=O)O` is ____.
0.000744

----------
# testContext: in acetone, 293.15 K
measurementType: solubility (mole fraction)
Lab note: write the figure by itself, no unit.

Fill in the blank: the reported solubility (mole fraction) of `C=C[C@]1(C)C[C@@H](OC(=O)CSCCN(CC)CC)[C@]2(C)[C@H](C)CC[C@]3(CCC(=O)[C@H]32)[C@@H](C)[C@@H]1O.O=C(O)/C=C/C(=O)O` is ____.
0.00257
